Where do the numbers come from? From PubChem BioAssay AID1963864.

System: KRAS PDC multicell spheroid viability
Assay: Anticancer human tumor 521955-158-R6-J3-PDC patient-derived pancreatic carcinoma cell line growth inhibition [KRAS2]
Details: second compound 0.1 µM; first compound 0.000316 µM; stronger effect = lower value
readout: viability, T/C (%)
The response must be a number in % with no trailing unit.

Some solved cases for reference:
>  <molecule>
CC(C)n1nc(-c2ccc3oc(N)nc3c2)c2c(N)ncnc21 + CNCc1ccccc1-c1csc(C(C)Nc2nc(C)nc3cc(OC)c(OC)cc23)c1

>  <experimental target>
KRAS PDC multicell spheroid viability

>  <viability, T/C [%]>
88.1

$$$$
>  <molecule>
CC(=O)Nc1cccc(-n2c(=O)n(C3CC3)c(=O)c3c(Nc4ccc(I)cc4F)n(C)c(=O)c(C)c32)c1 + CNCc1ccccc1-c1csc(C(C)Nc2nc(C)nc3cc(OC)c(OC)cc23)c1

>  <experimental target>
KRAS PDC multicell spheroid viability

>  <viability, T/C [%]>
83.3

$$$$

Proceeding to the next molecule to report its viability, T/C.
IN: Look at this molecule and give its reported viability, T/C. CC(=O)Nc1cccc(-n2c(=O)n(C3CC3)c(=O)c3c(Nc4ccc(I)cc4F)n(C)c(=O)c(C)c32)c1 + C=CC(=O)N1CCN(c2nc(=O)n(-c3c(C)ccnc3C(C)C)c3nc(-c4c(O)cccc4F)c(F)cc23)C(C)C1
OUT: 96.3

###

Test system: KRAS PDC multicell spheroid viability
Assay: Anticancer human tumor 521955-158-R6-J3-PDC cell line growth inhibition [KRAS2];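 further: drug exposure lasted seven days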;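 on viability, T/C: 100% = DMSO vehicle wells and lower means fewer viable cells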
Conditions: second compound 3.16 µM; first compound 0.01 µM; stronger effect = lower value
readout: viability, T/C

Some solved cases for reference:
>  <compound>
CC(C)n1nc(-c2ccc3oc(N)nc3c2)c2c(N)ncnc21 + C=CC(=O)N1CCN(c2nc(=O)n(-c3c(C)ccnc3C(C)C)c3nc(-c4c(O)cccc4F)c(F)cc23)C(C)C1

>  <viability, T/C>
70.2%

$$$$
>  <compound>
CC(=O)Nc1cccc(-n2c(=O)n(C3CC3)c(=O)c3c(Nc4ccc(I)cc4F)n(C)c(=O)c(C)c32)c1 + C=CC(=O)N1CCN(c2nc(=O)n(-c3c(C)ccnc3C(C)C)c3nc(-c4c(O)cccc4F)c(F)cc23)C(C)C1

>  <viability, T/C>
71.6%

$$$$

Proceeding to the next compound to report its viability, T/C.
IN: Observed viability, T/C on KRAS PDC multicell spheroid viability for CC(C)n1nc(-c2ccc3oc(N)nc3c2)c2c(N)ncnc21 + CC1OCC2(CCN(c3cnc(Sc4ccnc(N)c4Cl)c(N)n3)CC2)C1N , please.
OUT: 70.7%

###

pIC50: recorded values
Test system: KRAS PDC multicell spheroid viability
Assay: Anticancer human tumor 521955-158-R6-J3-PDC cell line growth inhibition [KRAS2];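 further: drug exposure lasted seven days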
Conditions: curve of first compound; second compound 0.1 µM
Description: Multicellular complex tumor spheroid response to RAS pathway inhibitors in combination with a targeted agents in patient-derived cell lines with oncogenic KRAS variants from multiple cancer types A high-throughput screen of multi-cell type tumor spheroids was designed to identify active combinations of targeted small molecules and KRAS pathway inhibitors. […] Compounds. […] If the clinical Cmax for an agent had not been determined, the highest concentration tested was 10 microM. […]
pIC50: −log10 of the molar value.

>  <molecule>
CCNC(=O)CC1N=C(c2ccc(Cl)cc2)c2cc(OC)ccc2-n2c(C)nnc21 (centres undefined) + CNCc1ccccc1-c1csc(C(C)Nc2nc(C)nc3cc(OC)c(OC)cc23)c1

>  <experimental target>
KRAS PDC multicell spheroid viability

>  <pIC50>
< 5.00

$$$$
>  <molecule>
Cn1ncnc1[C@H]1c2n[nH]c(=O)c3cc(F)cc(c23)N[C@@H]1c1ccc(F)cc1 + COc1cc2nc(C)nc(NC(C)c3cc(N)cc(C(F)(F)F)c3)c2cc1OC1CCOC1

>  <experimental target>
KRAS PDC multicell spheroid viability

>  <pIC50>
< 7.00

$$$$
>  <molecule>
CN(C)C/C=C/C(=O)Nc1cc2c(Nc3ccc(F)c(Cl)c3)ncnc2cc1O[C@H]1CCOC1 + COc1cc2nc(C)nc(NC(C)c3cc(N)cc(C(F)(F)F)c3)c2cc1OC1CCOC1

>  <experimental target>
KRAS PDC multicell spheroid viability

>  <pIC50>
< 7.00

$$$$

IN: Observed pIC50 on KRAS PDC multicell spheroid viability for CC(=O)OC12COC1CC(O)C1(C)C(=O)C(O)C3=C(C)C(OC(=O)C(O)C(NC(=O)OC(C)(C)C)c4ccccc4)CC(O)(C(OC(=O)c4ccccc4)C21)C3(C)C (centres undefined) + C=CC(=O)N1CCN(c2nc(OCC3CCCN3C)nc3c2CCN(c2cccc4cccc(C)c24)C3)CC1CC#N , please.
OUT: < 5.50
